system: A549; experiment: NCI tumour cell line growth inhibition, 48 h
Calls of active or inactive are those of the source. No stated cut-off is given here; in the data, active = GI50 up to about 1.1 µM and inactive = higher.
// one of active, inactive, no free text

compound=O=C(O)c1oc2ccc([N+](=O)[O-])c3c2c1CCC3 tested_target=A549 assigned_label=inactive
compound=O=S1(=O)OCCOS(=O)(=O)C1Br tested_target=A549 assigned_label=inactive
compound="CS/C(=N\\C#N)NC1CC(n2cc(C)c(=O)[nH]c2=O)OC1CO (centres undefined)" tested_target=A549 assigned_label=inactive
compound=Nc1ccccc1C(=O)CCC1C(=O)NC(=S)NC1=O tested_target=A549 assigned_label=inactive

Shifting focus to the compound that follows.
Write down the call the test reported for this compound. Item: CCOP(=O)(OCC)c1c(C(=O)OC)cc(=O)[nH]c1-c1ccc(C)cc1
inactive

* * *

tested on: UO-31; assay: NCI tumour cell line growth inhibition, 48 h
Active and inactive are the calls of the source. Cut-off read from the data, not from the text of the source: active = GI50 up to about 1.1 µM and inactive = higher.
Parameter: GI50

compound="COC(=O)C(CCSC)NC(=O)CSc1nnc(COc2ccc(Cl)cc2)n1-c1ccccc1 (stereo unspecified)" tested_target=UO-31 result="3.94 µM (inactive)"
compound="O=c1[nH]c(=O)n(C2CC(O)C(CO)O2)cc1Oc1ccccc1 (stereo unspecified)" tested_target=UO-31 result="> 100 µM (inactive)"
compound=CCOC(=O)CC/C(=N/Nc1ccc(Cl)cc1[N+](=O)[O-])C(=O)OCC tested_target=UO-31 result="> 100 µM (inactive)"
compound=CCO/N=C(/N)c1ncn(Cc2ccccc2)c1NCC(OCC)OCC tested_target=UO-31 result="> 100 µM (inactive)"
compound=CCCCC/C(C=O)=C\c1ccccc1 tested_target=UO-31 result="> 100 µM (inactive)"
compound=NC(=S)Nc1nnc(-c2ccc(-c3nnc(NC(N)=S)o3)cc2)o1 tested_target=UO-31 result="> 100 µM (inactive)"
compound="Cc1cn(C2CC(O)C(Cn3cc(Cn4ncc(=O)[nH]c4=O)nn3)O2)c(=O)[nH]c1=O (stereo unspecified)" tested_target=UO-31 result="> 100 µM (inactive)"
compound=c1csc(-c2ccsc2-c2cccs2)c1 tested_target=UO-31 result="39.5 µM (inactive)"
compound=COc1ccc2c3c(c(C(=O)O)oc13)CCC2 tested_target=UO-31 result="40.7 µM (inactive)"
compound=Cc1nn(C(=O)CC(=O)Nc2ccccc2Cl)c(C)c1/N=N/c1ccccc1Cl tested_target=UO-31 result="> 100 µM (inactive)"

Turning to the following compound.
Specify the recorded GI50 for c1ccc(C2CC(c3ccc4ccccc4c3)=Nc3ccccc3S2)cc1 (stereo unspecified) , system: UO-31.
12.5 µM (inactive)

* * *

system: RXF 393; assay: NCI tumour cell line growth inhibition, 48 h
The source made the active and inactive calls. Rule as the data show it: active = GI50 up to about 1.1 µM and inactive = higher.
Pick one and only one: TRUE for active, FALSE for inactive

// known answers, use as guide
molecule="CC(=O)OCC1OC(NC(=S)N/N=C2\\CC(c3ccccc3)Oc3ccccc32)C(OC(C)=O)C(OC(C)=O)C1OC(C)=O (stereo not given)" assigned_label=FALSE
molecule="Cc1ccc(S(=O)(=O)OC2CSSCC2OS(=O)(=O)c2ccc(C)cc2)cc1 (stereo not given)" assigned_label=FALSE
molecule=COc1ccc2[nH]c3c(C)c4ccnc(NCCCN(C)CCCNc5ccc([N+](=O)[O-])c6[nH]c7ccccc7c(=O)c56)c4c(C)c3c2c1 assigned_label=TRUE
molecule=CC(=O)Nc1ccc(-c2nnc(SCC(=O)Nc3cccc([N+](=O)[O-])c3)o2)cc1 assigned_label=FALSE
molecule=CC1=NN2CCC(=O)N=C2S1 assigned_label=FALSE
molecule="CCOC(=O)N1CC2(C)C=CC1C(C(=O)OC)C2 (stereo not given)" assigned_label=FALSE
molecule="CC(=O)C1=C(O)C(N)C2Cc3c(c(O)c4c(O)c(C)ccc4c3C)C(=O)C2(O)C1=O (stereo not given)" assigned_label=FALSE
molecule=COC(=O)Cc1ccc2c(c1)Sc1ccc(CC(=O)OC)cc1N2C assigned_label=FALSE
molecule=O=C(Nc1cc(Cl)c(I)c(Cl)c1)C(F)(F)F assigned_label=FALSE

For the next question, use this molecule.
For CCC1([N+](=O)[O-])CC2C=CC1C2 (stereo not given) , what call appears in the results of this test?
FALSE

* * *

test system: SN12C; experiment: NCI tumour cell line growth inhibition, 48 h
Calls of active or inactive are those of the source. Cut-off read from the data, not from the text of the source: active = GI50 up to about 1.1 µM and inactive = higher.
Parameter: GI50

compound=Oc1ccc(Cl)cc1-c1cc(-c2ccccc2)nc(NCN2CCCCC2)n1 result="> 100 µM (inactive)"
compound="COC(=O)C1=CC(O)CCC1c1ccc(OC)cc1 (stereo unspecified)" result="> 100 µM (inactive)"
compound="Cc1ccc(NC(=O)CCC(=O)C(C#N)c2ccccc2)cc1C (stereo unspecified)" result="> 100 µM (inactive)"
compound="COc1ccc(-n2c(SC(CN3CCOCC3)CN3CCCC3=O)nc3ccccc3c2=O)cc1 (stereo unspecified)" result="> 100 µM (inactive)"
compound="C1CCC2C(C1)CCCC2NC1=NCCO1 (stereo unspecified)" result="> 100 µM (inactive)"
compound="COc1cccc(C2c3cc4c(cc3OC(NNC(N)=O)C2C)OCO4)c1OC (stereo unspecified)" result="27 µM (inactive)"

Kindly review the next compound as well.
Please look at this compound and report its GI50: CCCc1cc(COC)c(C#N)c(O)n1
> 100 µM (inactive)

* * *

test system: K562; experiment: NCI tumour cell line growth inhibition, 48 h
Active and inactive are the calls of the source. No stated cut-off is given here; in the data, active = GI50 up to about 1.1 µM and inactive = higher.
Outcome field: choose from t for active, f for inactive

Please review the entries below; each comes with its answer.
molecule=O=C1Nc2cc([N+](=O)[O-])ccc2C(=O)N2CCC[C@@H]12 assigned_label=f
molecule="CCOC(=O)C1=C(C)C2C3C(=O)OC(=O)C3C1(C)C1C(=O)OC(=O)C21 (stereo unspecified)" assigned_label=f
molecule=N=c1c2c(=S)n(-c3ccccc3)c(=S)n(-c3ccccc3)c2nc(SCCN2CCOCC2)n1-c1ccccc1 assigned_label=f
molecule=COc1cc(OC)c2ssc3c(OC)cc(OC)c4ssc1c2-c43 assigned_label=f
molecule=CCCCCCCC(=O)OC[C@H](C[As](=O)(O)O)OC(=O)CCCCCCC assigned_label=f

Tell me the assay call for Cc1nnc2n1N=C(c1cc(F)c(Cl)cc1Cl)/C(=C/c1ccc(-c3ccc([N+](=O)[O-])cc3)o1)S2 please.
f

# lookup: test call for C/C=C/CC(C)[C@@H](O)[C@H](NC)C(=O)O (stereo partly specified)
f

Query: recorded result category for CC1=NN2CCC(=O)N=C2S1 in this test
f

For this molecule, state the assay outcome: CC(Cl)(/C=C/Cl)C(Cl)/C=C/C(Cl)(CCl)CBr (stereo unspecified)
f

For CN(C)C(=S)/N=c1\ssc(=S)n1Cc1ccco1 , which call appears in the assay record?
t

Which outcome did this test record for the molecule COc1cc(CNc2ccc(C(C)C)cc2)cc(OC)c1OC ?
f

* * *

test system: HOP-92; assay: NCI tumour cell line growth inhibition, 48 h
Calls of active or inactive are those of the source. Cut-off read from the data, not from the text of the source: active = GI50 up to about 1.1 µM and inactive = higher.
Valid outcomes are listed here; reply with one: active, inactive

Here's what some known entries look like.
molecule=COc1ccc(CCNC2=CC(=O)c3ncccc3C2=O)cc1OC assigned_label=inactive
molecule=CCc1nc(N)nc(N)c1-c1ccc2nnn(O)c2c1 assigned_label=inactive
molecule="COC(=O)CCC1(NS(=O)(=O)c2ccc(C)cc2)CCC(C(C)(C)C)CC1 (stereo unspecified)" assigned_label=inactive
molecule=FC(F)(F)c1ccccc1N1CCN(c2nc(-c3cccs3)nc3ccc(Br)cc23)CC1 assigned_label=active
molecule="COC(=O)C(CCSC)NC(=O)CSc1nnc(COc2ccc(Cl)cc2)n1-c1ccccc1 (stereo unspecified)" assigned_label=inactive

Which outcome was entered for the molecule Sc1nnc(COc2ccc(Cl)cc2Cl)[nH]1 in this test?
inactive

Dear all, I need the recorded test outcome for Cc1nc(N)nc(N)c1CCCc1ccccc1 , thank you.
inactive

Please let me know the test result on file for Cc1ccc(S(=O)(=O)N2CCSCCSCCSCCN(S(=O)(=O)c3ccc(C)cc3)CC2)cc1 .
inactive

What was the test verdict on COc1cc(CNc2ccc(C(C)C)cc2)cc(OC)c1OC ?
inactive

Recorded test outcome, item CCOP(=O)(OCC)c1c(C(=O)OC)cc(=O)[nH]c1-c1ccc(C)cc1
inactive

Kindly provide the recorded test outcome for the following molecule: O=C([O-])C(O)C(O)C(O)C(O)C(=O)O.[K+] (stereo unspecified)
inactive

* * *

Examples of molecules with documented GI50 follow.
tested on: SNB-75; experiment: NCI tumour cell line growth inhibition, 48 h
Active and inactive are the calls of the source. Rule as the data show it: active = GI50 up to about 1.1 µM and inactive = higher.

Please look at Cc1cc(C)nc(NS(=O)(=O)c2ccc(NC(=O)c3cccc4c(Nc5ccc(S(=O)(=O)Nc6nc(C)cc(C)n6)cc5)c5ccccc5nc34)cc2)n1 and tell me its recorded GI50 on SNB-75.
3.44 µM (inactive)

Provide the reported GI50 (system: SNB-75) for COc1ccc(C(=O)/C=C/c2ccc(Oc3cc(C(=O)/C=C/c4ccc(O)cc4)c(O)cc3OC)cc2)c(O)c1
5.27 µM (inactive)

For SNB-75, give GI50 of the listed molecule: O=C(O)c1cccc(OCCOc2cccc(C(=O)O)c2[N+](=O)[O-])c1[N+](=O)[O-]
> 100 µM (inactive)

Lab note: SNB-75 assay, enter GI50 for COC(=O)C(CCSC)NC(=O)CNC(=O)CSc1nnc(COc2ccc(Cl)cc2)n1-c1ccccc1 (centres undefined) here
19.1 µM (inactive)

Please report GI50 with SNB-75 for item COC(=O)[C@]12CC=C3O[C@@H]4OC5(CCCCC5)O[C@@H]4[C@H]3C1C(=O)C=CC2=O (some centres undefined) .
18.8 µM (inactive)
